Assay comment: in vivo
Parameters: species or system mice
Cond: male, NODSCID 1L2RγKO, mouse, iv, total radioactivity, Heart uptake
Each record here notes measured tissue uptake at 24 h.
Readout: tissue uptake at 24 h (%ID/g)

| Compound | Quantitative readout |
| --- | --- |
| O=C(O)CCC[C@H](NC(=O)N[C@@H](CCCCNC(=O)[C@H](Cc1c2ccccc2cc2ccccc12)NC(=O)[C@H]1CC[C@H](CNC(=O)CN2CCN(CC(=O)O)CCN(CC(=O)O)CCN(CC(=O)O)CC2)CC1)C(=O)O)C(=O)O [177Lu-HTK03149, metal not drawn] | 0.06 |
| COc1ccc(CCCC(=O)NCC(=O)N[C@@H](CCCCNC(=O)CN2CCN(CC(=O)O)CCN(CC(=O)O)CCN(CC(=O)O)CC2)C(=O)NC[C@H]2CC[C@H](C(=O)N[C@@H](Cc3c4ccccc4cc4ccccc34)C(=O)NCCCC[C@H](NC(=O)N[C@@H](CCCC(=O)O)C(=O)O)C(=O)O)CC2)cc1 [177Lu-HTK03170, metal not drawn] | 0.26 |
| O=C(O)CCC[C@H](NC(=O)N[C@@H](CCCCNC(=O)[C@H](Cc1c2ccccc2cc2ccccc12)NC(=O)[C@H]1CC[C@H](CNC(=O)[C@H](CCCCNC(=O)CN2CCN(CC(=O)O)CCN(CC(=O)O)CCN(CC(=O)O)CC2)NC(=O)CNC(=O)CCCc2ccc(Cl)cc2)CC1)C(=O)O)C(=O)O [177Lu-HTK03153, metal not drawn] | 1.9 |

----------
Measured tissue uptake at 24 h, listed per entry.
Assay comment: in vivo
Parameters: species or system mice
Cond: male, NODSCID 1L2RγKO, mouse, iv, total radioactivity, Pancreas uptake

| Molecule | tissue uptake at 24 h / %ID/g |
| --- | --- |
| O=C(O)CCC[C@H](NC(=O)N[C@@H](CCCCNC(=O)[C@H](Cc1c2ccccc2cc2ccccc12)NC(=O)[C@H]1CC[C@H](CNC(=O)CN2CCN(CC(=O)O)CCN(CC(=O)O)CCN(CC(=O)O)CC2)CC1)C(=O)O)C(=O)O [177Lu-HTK03149, metal not drawn] | 0.03 |
| COc1ccc(CCCC(=O)NCC(=O)N[C@@H](CCCCNC(=O)CN2CCN(CC(=O)O)CCN(CC(=O)O)CCN(CC(=O)O)CC2)C(=O)NC[C@H]2CC[C@H](C(=O)N[C@@H](Cc3c4ccccc4cc4ccccc34)C(=O)NCCCC[C@H](NC(=O)N[C@@H](CCCC(=O)O)C(=O)O)C(=O)O)CC2)cc1 [177Lu-HTK03170, metal not drawn] | 0.12 |

----------
Assay comment: in vivo
Design: species or system mice
Cond: male, NODSCID 1L2RγKO, mouse, iv, total radioactivity, Thyroid uptake
# tissue uptake at 120 h per entry

| Molecule | Display unit | tissue uptake at 120 h |
| --- | --- | --- |
| COc1ccc(CCCC(=O)NCC(=O)N[C@@H](CCCCNC(=O)CN2CCN(CC(=O)O)CCN(CC(=O)O)CCN(CC(=O)O)CC2)C(=O)NC[C@H]2CC[C@H](C(=O)N[C@@H](Cc3c4ccccc4cc4ccccc34)C(=O)NCCCC[C@H](NC(=O)N[C@@H](CCCC(=O)O)C(=O)O)C(=O)O)CC2)cc1 [177Lu-HTK03170, metal not drawn] | %ID/g | 0.08 |
| O=C(O)CCC[C@H](NC(=O)N[C@@H](CCCCNC(=O)[C@H](Cc1c2ccccc2cc2ccccc12)NC(=O)[C@H]1CC[C@H](CNC(=O)[C@H](CCCCNC(=O)CN2CCN(CC(=O)O)CCN(CC(=O)O)CCN(CC(=O)O)CC2)NC(=O)CNC(=O)CCCc2ccc(Cl)cc2)CC1)C(=O)O)C(=O)O [177Lu-HTK03153, metal not drawn] | %ID/g | 0.52 |

----------
Assay comment: in vivo
Cond: male, NODSCID 1L2RγKO, mouse, iv, total radioactivity, Brain uptake
tissue uptake at 1 h values by entry

| Compound | tissue uptake at 1 h (%ID/g) |
| --- | --- |
| O=C(O)CN1CCN(CC(=O)O)CCN(CC(=O)NC[C@H]2CC[C@H](C(=O)N[C@@H](Cc3c4ccccc4cc4ccccc34)C(=O)NCCCC[C@H](NC(=O)N[C@@H](C[C@@H](F)C(=O)O)C(=O)O)C(=O)O)CC2)CCN(CC(=O)O)CC1 [68Ga-HTK04033, metal not drawn] | 0.02 |
| O=C(O)CCC[C@H](NC(=O)N[C@@H](CCCCNC(=O)[C@H](Cc1cccc(I)c1)NC(=O)[C@H]1CC[C@H](CNC(=O)CN2CCN(CC(=O)O)CCN(CC(=O)O)CCN(CC(=O)O)CC2)CC1)C(=O)O)C(=O)O [68Ga-HTK04053, metal not drawn] | 0.01 |
| O=C(O)CCC[C@H](NC(=O)N[C@@H](CCCCNC(=O)[C@H](Cc1c2ccccc2cc2ccccc12)NC(=O)[C@H]1CC[C@H](CNC(=O)CN2CCN(CC(=O)O)CCN(CC(=O)O)CCN(CC(=O)O)CC2)CC1)C(=O)O)C(=O)O [68Ga-HTK03149, metal not drawn] | 0.02 |
| O=C(O)C[C@H](NC(=O)N[C@@H](CCCCNC(=O)[C@H](Cc1c2ccccc2cc2ccccc12)NC(=O)[C@H]1CC[C@H](CNC(=O)CN2CCN(CC(=O)O)CCN(CC(=O)O)CCN(CC(=O)O)CC2)CC1)C(=O)O)C(=O)O [68Ga-HTK03161, metal not drawn] | 0.02 |

----------
Assay comment: in vivo
Cond: male, NODSCID 1L2RγKO, mouse, iv, total radioactivity, Liver uptake
# tissue uptake at 1 h per entry

| Molecule | tissue uptake at 1 h, %ID/g |
| --- | --- |
| O=C(O)CC[C@H](NC(=O)N[C@@H](CCCCNC(=O)[C@H](Cc1c2ccccc2cc2ccccc12)NC(=O)[C@H]1CC[C@H](CNC(=O)CN2CCN(CC(=O)O)CCN(CC(=O)O)CCN(CC(=O)O)CC2)CC1)C(=O)O)C(=O)O [68Ga-HTK03041, metal not drawn] | 1.38 |
| O=C(O)CCC[C@H](NC(=O)N[C@@H](CCCCNC(=O)[C@H](Cc1ccc2ccccc2c1)NC(=O)[C@H]1CC[C@H](CNC(=O)CN2CCN(CC(=O)O)CCN(CC(=O)O)CCN(CC(=O)O)CC2)CC1)C(=O)O)C(=O)O [68Ga-HTK03169, metal not drawn] | 0.21 |
| O=C(O)CCC[C@H](NC(=O)N[C@@H](CCCCNC(=O)[C@H](Cc1c2ccccc2cc2ccccc12)NC(=O)c1ccc(NC(=O)CN2CCN(CC(=O)O)CCN(CC(=O)O)CCN(CC(=O)O)CC2)cc1)C(=O)O)C(=O)O [68Ga-HTK04041, metal not drawn] | 0.37 |
| O=C(O)CN1CCN(CC(=O)O)CCN(CC(=O)NC[C@H]2CC[C@H](C(=O)N[C@@H](Cc3c4ccccc4cc4ccccc34)C(=O)NCCCC[C@H](NC(=O)N[C@@H](C[C@H](F)C(=O)O)C(=O)O)C(=O)O)CC2)CCN(CC(=O)O)CC1 [68Ga-HTK04040, metal not drawn] | 0.94 |
| O=C(O)CCC[C@H](NC(=O)N[C@@H](CCCCNC(=O)[C@H](Cc1c2ccccc2cc2ccccc12)NC(=O)Cc1ccc(CNC(=O)CN2CCN(CC(=O)O)CCN(CC(=O)O)CCN(CC(=O)O)CC2)cc1)C(=O)O)C(=O)O [68Ga-HTK04036, metal not drawn] | 0.48 |
| O=C(O)CCC[C@H](NC(=O)N[C@@H](CCCCNC(=O)[C@H](Cc1c2ccccc2cc2ccccc12)NC(=O)Cc1cccc(CNC(=O)CN2CCN(CC(=O)O)CCN(CC(=O)O)CCN(CC(=O)O)CC2)c1)C(=O)O)C(=O)O [68Ga-HTK04037, metal not drawn] | 0.2 |
| O=C(O)CSC[C@H](NC(=O)N[C@@H](CCCCNC(=O)[C@H](Cc1c2ccccc2cc2ccccc12)NC(=O)[C@H]1CC[C@H](CNC(=O)CN2CCN(CC(=O)O)CCN(CC(=O)O)CCN(CC(=O)O)CC2)CC1)C(=O)O)C(=O)O [68Ga-HTK03177, metal not drawn] | 0.33 |
| O=C(O)CCCCC(NC(=O)N[C@@H](CCCCNC(=O)[C@H](Cc1c2ccccc2cc2ccccc12)NC(=O)[C@H]1CC[C@H](CNC(=O)CN2CCN(CC(=O)O)CCN(CC(=O)O)CCN(CC(=O)O)CC2)CC1)C(=O)O)C(=O)O (single isomer, unassigned) [68Ga-HTK03189A, metal not drawn] | 0.34 |
| O=C(O)CCC[C@H](NC(=O)N[C@@H](CCCCNC(=O)[C@H](Cc1c2ccccc2cc2ccccc12)NC(=O)[C@H]1CC[C@H](CNC(=O)CN2CCN(CC(=O)O)CCN(CC(=O)O)CCN(CC(=O)O)CC2)CC1)C(=O)O)C(=O)O [68Ga-HTK03149, metal not drawn] | 0.35 |
| O=C(O)C[C@H](NC(=O)N[C@@H](CCCCNC(=O)[C@H](Cc1c2ccccc2cc2ccccc12)NC(=O)[C@H]1CC[C@H](CNC(=O)CN2CCN(CC(=O)O)CCN(CC(=O)O)CCN(CC(=O)O)CC2)CC1)C(=O)O)C(=O)O [68Ga-HTK03161, metal not drawn] | 0.28 |
| O=C(O)CN1CCN(CC(=O)O)CCN(CC(=O)NC[C@H]2CC[C@H](C(=O)N[C@@H](Cc3c4ccccc4cc4ccccc34)C(=O)NCCCC[C@H](NC(=O)N[C@@H](C[C@@H](F)C(=O)O)C(=O)O)C(=O)O)CC2)CCN(CC(=O)O)CC1 [68Ga-HTK04033, metal not drawn] | 0.29 |
| O=C(O)CCC[C@H](NC(=O)N[C@@H](CCCCNC(=O)[C@H](Cc1cccc(I)c1)NC(=O)[C@H]1CC[C@H](CNC(=O)CN2CCN(CC(=O)O)CCN(CC(=O)O)CCN(CC(=O)O)CC2)CC1)C(=O)O)C(=O)O [68Ga-HTK04053, metal not drawn] | 0.13 |
| O=C(O)COC[C@H](NC(=O)N[C@@H](CCCCNC(=O)[C@H](Cc1c2ccccc2cc2ccccc12)NC(=O)[C@H]1CC[C@H](CNC(=O)CN2CCN(CC(=O)O)CCN(CC(=O)O)CCN(CC(=O)O)CC2)CC1)C(=O)O)C(=O)O [68Ga-HTK03187, metal not drawn] | 0.21 |
